Species on record: Homo sapiens
Protocol: Inhibition of P-gp in human LCC6MDR cells assessed as potentiation of paclitaxel-induced cytotoxicity by measuring fold reduction in paclitaxel IC50 at 1 uM after 5 days by MTS assay relative to paclitaxel alone
Format: cell-based
Measured Metric: Ratio IC50
No unit in the answer, only the number.

Please review the entries below; each comes with its answer.
O=c1cc(-c2ccc(OCCOCCn3cc(CN(CCOc4ccc5c(=O)cc(-c6ccccc6)oc5c4)Cc4ccccc4)nn3)cc2)oc2ccccc12 : 38.7
O=c1cc(-c2ccccc2)oc2cc(OCCN(Cc3ccccc3)Cc3cn(CCOCCOCCOc4ccc(-c5cc(=O)c6cc(F)ccc6o5)cc4)nn3)ccc12 : 16.9

As a next step, examine the molecule that follows.
stdin: What measured Ratio IC50 goes with "Cc1ccc2oc(-c3ccc(OCCCCc4cn(CCOCCOCCOc5ccc(-c6cc(=O)c7cc(F)ccc7o6)cc5)nn4)cc3)cc(=O)c2c1" ?
stdout: 99.2

###

Survival listing for selected compounds.
Target Of Assay: Multidrug resistance-associated protein 1 (Homo sapiens)
Protocol: Inhibition of MRP1 in human 2008/MRP1 cells assessed as potentiation of doxorubicin-induced cytotoxicity by measuring cell survival at 2 uM after 5 days by MTS assay relative to control
Type: cell-based
Study Conditions: 120 h

O=c1cc(-c2ccccc2)oc2cc(OCCOCCOCCn3cc(COCCOc4ccc5c(=O)cc(-c6ccccc6)oc5c4)nn3)ccc12 : 60%
COc1cccc(COc2c(-c3ccc(OCCCCc4cn(CCOCCOc5ccc(-c6cc(=O)c7cc(F)ccc7o6)cc5)nn4)cc3)oc3ccccc3c2=O)c1 : 65%

stdin: What measured Survival goes with "COc1cccc(COc2c(-c3ccc(OCCCCc4cn(CCOc5cccc6c(=O)cc(-c7ccccc7)oc56)nn4)cc3)oc3ccccc3c2=O)c1" ?
stdout: 51%

stdin: What measured Survival goes with "CCc1ccc(O)c(C(=O)/C=C/c2ccc(OCCCCc3cn(CCOCCOc4ccc(-c5oc6ccccc6c(=O)c5OCc5cccc(OC)c5)cc4)nn3)cc2)c1" ?
stdout: 76%

stdin: What measured Survival goes with "CN(CCN(C)Cc1cn(CCOCCOCCOc2ccc3c(=O)cc(-c4ccccc4)oc3c2)nn1)Cc1cn(CCOCCOCCOc2ccc3c(=O)cc(-c4ccccc4)oc3c2)nn1" ?
stdout: 88%

stdin: What measured Survival goes with "O=c1cc(-c2ccc(OCCOCCOCCn3cc(CN(Cc4cn(CCOCCOCCOc5ccc(-c6cc(=O)c7cc(F)ccc7o6)cc5)nn4)Cc4cn(CCOCCOCCOc5ccc(-c6cc(=O)c7cc(F)ccc7o6)cc5)nn4)nn3)cc2)oc2ccc(F)cc12" ?
stdout: 77%

###

System: MRP1
Protocol: in vitro
Study Conditions: mouse, L929 cells (IC50) versus 2008/MRP1 cells (EC50)
Description: Selectivity index, ratio of IC50 for mouse L929 cells to EC50 for MRP1 in human 2008/MRP1 cells
Measured Metric: selectivity ratio

O=c1cc(-c2ccc(OCCCc3cn(CCOCCOCCOc4ccc(-c5cc(=O)c6cc(F)ccc6o5)cc4)nn3)cc2)oc2cc(F)ccc12 : > 971
Cc1ccc2oc(-c3ccc(OCCCCc4cn(CCOCCOc5ccc(-c6cc(=O)c7ccccc7o6)cc5)nn4)cc3)cc(=O)c2c1 : > 553
Cc1ccc2oc(-c3ccc(OCCOCCOCCn4cc(CCCOc5ccc(-c6cc(=O)c7ccc(F)cc7o6)cc5)nn4)cc3)cc(=O)c2c1 : > 826
O=c1cc(-c2ccccc2)oc2cc(OCCCc3cn(CCOCCOc4ccc5c(=O)cc(-c6ccccc6)oc5c4)nn3)ccc12 : > 336
O=c1cc(-c2ccccc2)oc2cc(OCCN(Cc3ccccc3)Cc3cn(CCOCCOc4ccc(-c5cc(=O)c6cc(F)ccc6o5)cc4)nn3)ccc12 : > 645

stdin: Give selectivity ratio (MRP1) of the following compound: "O=c1cc(-c2ccccc2)oc2cc(OCCCc3cn(CCOCCOCCOc4ccc(-c5cc(=O)c6cc(F)ccc6o5)cc4)nn3)ccc12"
stdout: > 1050

stdin: Give selectivity ratio (MRP1) of the following compound: "Cc1ccc2oc(-c3ccc(OCCCCc4cn(CCOCCOCCOc5ccc(-c6cc(=O)c7cc(C)ccc7o6)cc5)nn4)cc3)cc(=O)c2c1"
stdout: > 365

stdin: Give selectivity ratio (MRP1) of the following compound: "O=c1cc(-c2ccc(OCCCc3cn(CCOCCOc4ccc(-c5cc(=O)c6ccccc6o5)cc4)nn3)cc2)oc2ccccc12"
stdout: 531

###

Target Of Assay: Multidrug resistance-associated protein 1 (Homo sapiens, UniProt P33527)
Sequence (P33527 whole entry): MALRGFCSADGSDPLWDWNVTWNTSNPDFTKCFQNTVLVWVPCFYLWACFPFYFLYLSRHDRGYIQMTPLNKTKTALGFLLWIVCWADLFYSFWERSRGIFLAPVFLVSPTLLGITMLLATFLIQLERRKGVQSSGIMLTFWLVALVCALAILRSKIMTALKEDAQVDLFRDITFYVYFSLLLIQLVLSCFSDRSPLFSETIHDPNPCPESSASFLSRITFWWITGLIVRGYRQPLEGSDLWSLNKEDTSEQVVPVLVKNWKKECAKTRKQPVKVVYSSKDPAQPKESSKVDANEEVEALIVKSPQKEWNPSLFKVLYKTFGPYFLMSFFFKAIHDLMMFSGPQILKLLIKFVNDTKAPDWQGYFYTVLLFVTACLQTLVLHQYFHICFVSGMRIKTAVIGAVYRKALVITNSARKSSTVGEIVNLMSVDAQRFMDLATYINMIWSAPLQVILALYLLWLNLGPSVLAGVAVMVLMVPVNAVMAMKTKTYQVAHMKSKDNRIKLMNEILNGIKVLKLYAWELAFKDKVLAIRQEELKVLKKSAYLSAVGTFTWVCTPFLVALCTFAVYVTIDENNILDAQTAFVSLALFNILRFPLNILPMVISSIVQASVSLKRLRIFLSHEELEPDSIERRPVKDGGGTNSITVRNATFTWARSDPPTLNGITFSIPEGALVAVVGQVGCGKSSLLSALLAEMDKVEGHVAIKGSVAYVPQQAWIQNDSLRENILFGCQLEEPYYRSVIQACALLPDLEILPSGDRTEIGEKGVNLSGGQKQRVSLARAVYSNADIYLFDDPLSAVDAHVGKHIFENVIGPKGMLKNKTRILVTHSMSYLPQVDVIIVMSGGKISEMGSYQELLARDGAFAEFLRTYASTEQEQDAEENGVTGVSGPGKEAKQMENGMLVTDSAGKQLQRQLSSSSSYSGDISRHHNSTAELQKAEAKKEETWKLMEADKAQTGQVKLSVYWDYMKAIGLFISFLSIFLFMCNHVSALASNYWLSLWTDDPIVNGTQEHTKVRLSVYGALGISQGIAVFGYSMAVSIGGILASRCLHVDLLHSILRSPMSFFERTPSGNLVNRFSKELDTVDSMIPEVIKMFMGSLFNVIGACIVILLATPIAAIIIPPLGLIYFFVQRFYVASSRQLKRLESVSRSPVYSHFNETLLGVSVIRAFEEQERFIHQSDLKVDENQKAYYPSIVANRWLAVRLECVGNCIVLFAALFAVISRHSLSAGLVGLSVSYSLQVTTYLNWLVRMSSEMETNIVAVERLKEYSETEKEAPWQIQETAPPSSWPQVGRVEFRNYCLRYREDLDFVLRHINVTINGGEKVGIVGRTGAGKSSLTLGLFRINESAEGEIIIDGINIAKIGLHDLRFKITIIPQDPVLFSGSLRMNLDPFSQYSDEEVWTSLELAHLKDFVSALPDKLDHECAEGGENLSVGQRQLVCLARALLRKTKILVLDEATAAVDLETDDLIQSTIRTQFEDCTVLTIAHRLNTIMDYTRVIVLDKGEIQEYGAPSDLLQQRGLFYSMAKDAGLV
Protocol: Inhibition of MRP1 in human 2008/MRP1 cells assessed as potentiation of doxorubicin-induced cytotoxicity by measuring cell survival at 2 uM after 5 days by MTS assay relative to control
Assay type: cell-based
Study Conditions: 120 h
Assign labels as follows, please: YES for Survival below 60%; NO for Survival equal to or exceeding 60%.

Please review the entries below; each comes with its answer.
Cc1ccc2oc(-c3ccc(OCCOCCOCCn4cc(CN(C)CCN(C)Cc5cn(CCOCCOCCOc6ccc(-c7cc(=O)c8cc(C)ccc8o7)cc6)nn5)nn4)cc3)cc(=O)c2c1 : NO
COc1cccc(COc2c(-c3ccc(OCCCCc4cn(CCOCCOCCOc5ccc(-c6cc(=O)c7ccccc7o6)cc5)nn4)cc3)oc3ccccc3c2=O)c1 : YES
O=c1cc(-c2ccccc2)oc2cc(OCCN(Cc3ccccc3)Cc3cn(CCOCCOCCOc4ccc(-c5oc6ccccc6c(=O)c5OCc5ccccc5)cc4)nn3)ccc12 : NO
C#CCCCCOc1ccc(-c2oc3ccccc3c(=O)c2OCc2cccc(OC)c2)cc1 : NO
COc1cccc(COc2c(-c3ccc(OCCOCCn4cc(CCCOc5ccc(-c6nc7ccccc7c(=O)[nH]6)cc5)nn4)cc3)oc3ccccc3c2=O)c1 : NO

Moving on to the next molecule.
stdin: # check: Survival < 60% for "CCc1ccc(O)c(C(=O)/C=C/c2ccc(OCCCCc3cn(CCOCCOCCOc4ccc(-c5cc(=O)c6cc(C)ccc6o5)cc4)nn3)cc2)c1"
stdout: NO

###

Target Of Assay: Multidrug resistance-associated protein 1 (Homo sapiens)
Protocol: Inhibition of MRP1 in human 2008/MRP1 cells assessed as potentiation of doxorubicin-induced cytotoxicity by measuring cell survival at 2 uM after 5 days by MTS assay relative to control
Assay type: cell-based
Study Conditions: 120 h
Survival listing for selected compounds.
State the answer as a number, implicitly in %.

Please review the entries below; each comes with its answer.
O=C(/C=C/c1ccc(OCCCCc2cn(CCOCCOc3ccc(-c4oc5ccccc5c(=O)c4OCc4ccccc4)cc3)nn2)cc1)c1ccc(F)cc1O : 69
C#CCCCCOc1ccc(/C=C/C(=O)c2cc(C)ccc2O)cc1 : 100
C#CCN1CCN(CC#C)CC1 : 81
Cc1ccc2oc(-c3ccc(OCCOCCOCCn4cc(CN(CCOc5ccc6c(=O)cc(-c7ccccc7)oc6c5)Cc5ccccc5)nn4)cc3)cc(=O)c2c1 : 53
CCc1ccc(O)c(C(=O)/C=C/c2ccc(OCCCCc3cn(CCOCCOCCOc4ccc(-c5cc(=O)c6ccccc6o5)cc4)nn3)cc2)c1 : 60

stdin: What measured Survival goes with "O=c1c(OCc2ccccc2)c(-c2ccc(OCCOCCOCCn3cc(-c4ccc(-c5cn(CCOCCOCCOc6ccc(-c7oc8ccccc8c(=O)c7OCc7ccccc7)cc6)nn5)cc4)nn3)cc2)oc2ccccc12" ?
stdout: 86

stdin: What measured Survival goes with "O=c1[nH]c(-c2ccc(OCCCc3cn(CCOCCOCCOc4ccc5c(=O)cc(-c6ccccc6)oc5c4)nn3)cc2)nc2ccccc12" ?
stdout: 60

stdin: What measured Survival goes with "O=C(/C=C/c1ccc(OCCCCc2cn(CCOCCOc3ccc4c(=O)cc(-c5ccccc5)oc4c3)nn2)cc1)c1ccccc1O" ?
stdout: 58

stdin: What measured Survival goes with "COc1cccc(COc2c(-c3ccc(OCCOCCn4cc(CCCCOc5ccc(/C=C/C(=O)c6ccc(F)cc6O)cc5)nn4)cc3)oc3ccccc3c2=O)c1" ?
stdout: 75

stdin: What measured Survival goes with "O=Cc1ccc(OCCCCc2cn(CCOCCOCCOc3ccc(-c4cc(=O)c5ccccc5o4)cc3)nn2)cc1" ?
stdout: 70

stdin: What measured Survival goes with "O=c1cc(-c2ccc(OCCCc3cn(CCOCCOc4ccc(-c5oc6ccccc6c(=O)c5OCc5ccccc5)cc4)nn3)cc2)oc2ccccc12" ?
stdout: 50

stdin: What measured Survival goes with "O=c1cc(-c2ccc(OCCCc3cn(CCOCCOCCOc4ccc(-c5cc(=O)c6cc(F)ccc6o5)cc4)nn3)cc2)oc2ccc(F)cc12" ?
stdout: 76

stdin: What measured Survival goes with "O=c1cc(-c2ccc(OCCOCCn3cc(CN(Cc4ccccc4)Cc4cn(CCOCCOc5ccc(-c6cc(=O)c7cc(F)ccc7o6)cc5)nn4)nn3)cc2)oc2ccc(F)cc12" ?
stdout: 70

stdin: What measured Survival goes with "Cc1ccc2oc(-c3ccc(OCCOCCOCCn4cc(CN(Cc5cn(CCOCCOCCOc6ccc(-c7cc(=O)c8cc(C)ccc8o7)cc6)nn5)Cc5cn(CCOCCOCCOc6ccc(-c7cc(=O)c8cc(C)ccc8o7)cc6)nn5)nn4)cc3)cc(=O)c2c1" ?
stdout: 71

stdin: What measured Survival goes with "COc1cccc(COc2c(-c3ccc(OCCOCCn4cc(CCCCOc5ccc(/C=C/C(=O)c6cc(C)ccc6O)cc5)nn4)cc3)oc3ccccc3c2=O)c1" ?
stdout: 75

stdin: What measured Survival goes with "O=c1cc(-c2ccc(OCCOCCn3cc(CNc4ccccc4)nn3)cc2)oc2ccc(F)cc12" ?
stdout: 81

stdin: What measured Survival goes with "C#CCN(CCOc1ccc2c(=O)cc(-c3ccccc3)oc2c1)Cc1ccccc1" ?
stdout: 86

stdin: What measured Survival goes with "O=C(/C=C/c1ccc(OCCCCc2cn(CCOCCOc3ccc(-c4oc5ccccc5c(=O)c4OCc4ccccc4)cc3)nn2)cc1)c1ccccc1O" ?
stdout: 72

stdin: What measured Survival goes with "O=c1cc(-c2ccccc2)oc2cc(OCCN(Cc3ccccc3)Cc3cn(CCOCCOc4ccc(-c5cc(=O)c6cc(F)ccc6o5)cc4)nn3)ccc12" ?
stdout: 36

stdin: What measured Survival goes with "O=c1cc(-c2ccc(OCCOCCn3cc(CCCCOc4ccc5c(=O)cc(-c6ccccc6)oc5c4)nn3)cc2)oc2ccccc12" ?
stdout: 30

stdin: What measured Survival goes with "O=C(/C=C/c1ccc(OCCCCc2cn(CCOCCOc3cccc(-c4oc5ccccc5c(=O)c4OCc4ccccc4)c3)nn2)cc1)c1ccc(F)cc1O" ?
stdout: 68

stdin: What measured Survival goes with "O=C1c2ccccc2C(=O)N1CCc1cn(CCOCCOc2ccc(-c3cc(=O)c4cc(F)ccc4o3)cc2)nn1" ?
stdout: 39
